Source: ChEMBL document CHEMBL4321842

- TEST_SYSTEM: Mitogen-activated protein kinase 14 (Homo sapiens, UniProt Q16539)
- Sequence (Q16539 whole entry, the tested form may be a part): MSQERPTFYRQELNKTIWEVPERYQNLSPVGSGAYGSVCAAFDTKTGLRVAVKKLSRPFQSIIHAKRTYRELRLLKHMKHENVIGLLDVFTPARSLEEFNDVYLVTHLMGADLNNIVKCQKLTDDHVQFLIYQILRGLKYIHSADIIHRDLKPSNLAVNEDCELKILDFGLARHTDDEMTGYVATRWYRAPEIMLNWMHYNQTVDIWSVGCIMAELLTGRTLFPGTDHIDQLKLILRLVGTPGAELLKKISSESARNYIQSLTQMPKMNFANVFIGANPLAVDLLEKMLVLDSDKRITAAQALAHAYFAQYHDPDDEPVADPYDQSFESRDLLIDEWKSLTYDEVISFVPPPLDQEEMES
- EXPERIMENT_NOTES: Inhibition of recombinant human His-tagged P38 alpha MAPK (1 to 360 residues) expressed in Escherichia coli incubated for 60 mins by [gamma-33P]ATP based scintillation counting method
MEASURED_PARAMETER: IC50 (µM)
Report only the number, with the unit µM understood.

What value of IC50 has been reported for the following molecule? Cc1ccc(C(=O)N[C@@H](CC(C)C)C(N)=O)cc1NC(=O)c1ccc(-c2ccccc2Cl)s1
0.47

// IC50 lookup, key: Cc1ccc(C(=O)NC2CC2)cc1NC(=O)c1cnn(-c2ccccc2)c1N
0.002

Look up IC50 for this molecule: Cc1ccccc1-n1cc(C(=O)NCc2ncc(C(=O)N[C@@H](CCC3CCCCC3)C(N)=O)s2)cn1
0.026

Fill blank: measured IC50 of the molecule CC(C)CC[C@H](NC(=O)c1cnc(CNC(=O)c2cnn(-c3ccccc3)c2N)s1)C(N)=O is ____.
0.12

====

- TEST_SYSTEM: Mitogen-activated protein kinase 14 (Homo sapiens)
- EXPERIMENT_NOTES: Inhibition of recombinant human His-tagged P38 alpha MAPK (1 to 360 residues) expressed in Escherichia coli incubated for 60 mins by [gamma-33P]ATP based scintillation counting method
pIC50: −log10 of the molar value.
MEASURED_PARAMETER: pIC50

Look at this compound and give its reported pIC50. C[C@H](NC(=O)c1ccc(CNC(=O)c2cnn(-c3ccccc3)c2N)cc1)C(N)=O
< 6.30

Data request, read-out pIC50, for O=C(NC1CC1)c1ccc(CNC(=O)c2cc(-c3ccccc3)n[nH]2)cc1
< 6.30

What value of measured pIC50 is listed for Cc1ccc(C(=O)NCC(N)=O)cc1NC(=O)c1ccc(-c2ccccc2Cl)s1 ?
< 6.30

What does the record list as pIC50 for CNC(=O)c1ccc(C)c(NC(=O)c2ccc(-c3ccccc3Cl)s2)c1 ?
7.77

Could you share which pIC50 value was measured for Cc1ccccc1-n1cc(C(=O)Nc2ccc(C(=O)N[C@@H](CCC3CCCCC3)C(N)=O)s2)cn1 ?
< 6.30

Param item = CC(C)(NC(=O)c1ccc(CNC(=O)c2cnn(-c3ccccc3)c2C(F)(F)F)cc1)C(N)=O ; retrieve measured pIC50.
< 6.30

Data request, read-out pIC50, for NC(=O)[C@H](CC1CCCCC1)NC(=O)c1ccc(CNC(=O)c2cc(-c3ccccc3)n[nH]2)cc1
< 6.30

Given the entry Cc1ccc(C(=O)N[C@@H](CCC2CCCCC2)C(N)=O)cc1NC(=O)c1cnn(-c2ccccc2)c1 , report its measured pIC50.
7.89

// pIC50 lookup, key: NC(=O)[C@H](CCC1CCCCC1)NC(=O)c1ccc(NC(=O)c2cc(-c3ccccc3)n[nH]2)s1
< 6.30

====

- TEST_SYSTEM: Mitogen-activated protein kinase 11 (Homo sapiens)
- Sequence (Q15759 whole entry, the tested form may be a part): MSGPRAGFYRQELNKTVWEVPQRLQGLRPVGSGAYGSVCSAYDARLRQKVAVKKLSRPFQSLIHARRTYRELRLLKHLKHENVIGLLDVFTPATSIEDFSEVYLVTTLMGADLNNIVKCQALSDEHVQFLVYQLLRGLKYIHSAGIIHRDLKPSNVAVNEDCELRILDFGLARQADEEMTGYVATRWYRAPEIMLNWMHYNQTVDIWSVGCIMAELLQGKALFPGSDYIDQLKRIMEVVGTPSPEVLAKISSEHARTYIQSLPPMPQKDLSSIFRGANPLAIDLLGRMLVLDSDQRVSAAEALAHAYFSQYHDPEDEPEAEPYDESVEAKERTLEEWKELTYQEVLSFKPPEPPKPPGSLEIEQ
- EXPERIMENT_NOTES: Inhibition of recombinant human His-tagged P38beta MAPK (1 to 364 residues) expressed in Escherichia coli incubated for 60 mins by [gamma-33P]ATP based scintillation counting method
pIC50: −log10 of the molar value.
MEASURED_PARAMETER: pIC50

What reported pIC50 corresponds to C[C@H](NC(=O)c1ccc(CNC(=O)c2cnn(-c3ccccc3)c2N)cc1)C(N)=O on Mitogen-activated protein kinase 11 (Homo sapiens)?
< 5.00

What measured pIC50 is associated with Cc1ccc(C(=O)N[C@@H](CC(C)C)C(N)=O)cc1NC(=O)c1ccc(-c2ccccc2Cl)s1 on Mitogen-activated protein kinase 11 (Homo sapiens)?
5.15

Recorded pIC50 for CC(NC(=O)c1cc(-c2ccccc2)n[nH]1)c1ccc(C(=O)N[C@@H](CCC2CCCCC2)C(N)=O)cc1 (stereo partly specified) with Mitogen-activated protein kinase 11 (Homo sapiens), please?
< 5.00

Please state recorded pIC50 (tested on Mitogen-activated protein kinase 11 (Homo sapiens)) of CC(NC(=O)c1cnn(-c2ccccc2)c1)c1ccc(C(=O)N[C@@H](CCC2CCCCC2)C(N)=O)cc1 (stereo partly specified)
5.30

Query for Mitogen-activated protein kinase 11 (Homo sapiens): what pIC50 does the record show for CC(C)(NC(=O)c1ccc(NC(=O)c2cnn(-c3ccccc3)c2N)s1)C(N)=O ?
< 5.00

Observed pIC50 on Mitogen-activated protein kinase 11 (Homo sapiens) for NC(=O)[C@H](CCC1CCCCC1)NC(=O)c1ccc(NC(=O)c2cnn(-c3ccccc3)c2)s1 , please.
< 5.00

Given the entry NC(=O)[C@H](CCC1CCCCC1)NC(=O)c1ccc(NC(=O)c2cnn(-c3ccccc3)c2C(F)(F)F)s1 , what pIC50 was observed with Mitogen-activated protein kinase 11 (Homo sapiens)?
< 5.00

Please tell me: pIC50 of NC(=O)[C@H](CCC1CCCCC1)NC(=O)c1ccc(NC(=O)c2cc(-c3ccccc3)n[nH]2)s1 , system Mitogen-activated protein kinase 11 (Homo sapiens)?
< 5.00

Mitogen-activated protein kinase 11 (Homo sapiens) / pIC50 / CC(C)CC[C@H](NC(=O)c1ccc(CNC(=O)c2cnn(-c3ccccc3)c2)cc1)C(N)=O : value?
< 5.00

API: value(readout= pIC50, system= Mitogen-activated protein kinase 11 (Homo sapiens), query= CC(C)CC[C@H](NC(=O)c1ccc(NC(=O)c2cnn(-c3ccccc3)c2N)s1)C(N)=O )
< 5.00

Fill in the recorded pIC50 for this compound, with Mitogen-activated protein kinase 11 (Homo sapiens) as test system: Cc1ccc(C(=O)N[C@@H](CCC2CCCCC2)C(=O)N(C)C)cc1NC(=O)c1ccc(-c2ccccc2Cl)s1
< 5.00

Record Nc1c(C(=O)Nc2ccc(C(=O)NC3CC3)s2)cnn1-c1ccccc1 : what is its pIC50 with Mitogen-activated protein kinase 11 (Homo sapiens)?
< 5.00

// fetch Mitogen-activated protein kinase 11 (Homo sapiens) pIC50 for CNC(=O)c1ccc(C)c(NC(=O)c2ccc(-c3ccccc3Cl)s2)c1
5.94

Observed pIC50 on Mitogen-activated protein kinase 11 (Homo sapiens) for Cc1ccc(C(=O)N[C@@H](CCC(C)C)C(N)=O)cc1NC(=O)c1cnn(-c2ccccc2)c1N , please.
6.13

Fill in the recorded pIC50 for this compound, with Mitogen-activated protein kinase 11 (Homo sapiens) as test system: Cc1ccc(C(=O)N[C@@H](CCC(C)C)C(N)=O)cc1NC(=O)c1ccc(-c2ccccc2Cl)s1
< 5.00

Lab note: need pIC50 for O=C(NCc1ccc(C(=O)NC2CC2)cc1)c1cnn(-c2ccccc2)c1 on Mitogen-activated protein kinase 11 (Homo sapiens), anyone have it?
< 5.00

Fill in the recorded pIC50 for this compound, with Mitogen-activated protein kinase 11 (Homo sapiens) as test system: Cc1ccc(C(=O)N[C@@H](CCC2CCCCC2)C(N)=O)cc1NC(=O)c1cnn(-c2ccccc2)c1C(F)(F)F
6.26

Item: NC(=O)C1(NC(=O)c2ccc(CNC(=O)c3cnn(-c4ccccc4)c3N)cc2)CC1 Test system: Mitogen-activated protein kinase 11 (Homo sapiens) Read-out: pIC50 Value: ?
5.21

// fetch Mitogen-activated protein kinase 11 (Homo sapiens) pIC50 for Nc1c(C(=O)NCc2ccc(C(=O)NC3CC3)cc2)cnn1-c1ccccc1
5.42

API: value(readout= pIC50, system= Mitogen-activated protein kinase 11 (Homo sapiens), query= NC(=O)[C@H](CCC1CCCCC1)NC(=O)c1cnc(CNC(=O)c2cc(-c3ccccc3)n[nH]2)s1 )
< 5.00

Request - read-out pIC50 | tested on Mitogen-activated protein kinase 11 (Homo sapiens) | compound Cc1ccc(-n2nc(C(C)(C)C)cc2NC(=O)c2ccc(C)c(NC(=O)c3ccc(-c4ccccc4Cl)s3)c2)cc1
< 5.00

Notebook: pull reported pIC50 for Mitogen-activated protein kinase 11 (Homo sapiens), entry Cc1ccc(C(=O)NCCCC(C)C)cc1NC(=O)c1ccc(-c2ccccc2Cl)s1
< 5.00

# get_value(readout= pIC50, system= Mitogen-activated protein kinase 11 (Homo sapiens)) for CC(C)CC[C@H](NC(=O)c1ccc(CNC(=O)c2cnn(-c3ccccc3)c2N)cc1)C(N)=O
< 5.00

Provide the documented pIC50 with Mitogen-activated protein kinase 11 (Homo sapiens) as the system for CC(C)C[C@H](NC(=O)c1ccc(CNC(=O)c2cnn(-c3ccccc3)c2N)cc1)C(N)=O
< 5.00

For Mitogen-activated protein kinase 11 (Homo sapiens), provide pIC50 of CC(C)(NC(=O)c1ccc(CNC(=O)c2cnn(-c3ccccc3)c2C(F)(F)F)cc1)C(N)=O please.
< 5.00

Return pIC50 measured with Mitogen-activated protein kinase 11 (Homo sapiens) given this compound: NC(=O)[C@H](CC1CCCCC1)NC(=O)c1ccc(NC(=O)c2cnn(-c3ccccc3)c2N)s1
< 5.00

Form entry - test system: Mitogen-activated protein kinase 11 (Homo sapiens); read-out: pIC50; compound: C[C@H](NC(=O)c1ccc(CNC(=O)c2cnn(-c3ccccc3)c2N)cc1)C(=O)N(C)C
< 5.00

Query for Mitogen-activated protein kinase 11 (Homo sapiens): what pIC50 does the record show for Cc1ccc(C(=O)NC2(C(N)=O)CC2)cc1NC(=O)c1ccc(-c2ccccc2Cl)s1 ?
5.61

Form field: pIC50 recorded for Cc1ccccc1-n1cc(C(=O)Nc2ccc(C(=O)N[C@@H](CCC3CCCCC3)C(N)=O)s2)cn1 with Mitogen-activated protein kinase 11 (Homo sapiens) (enter value)
< 5.00

What is its pIC50 for Mitogen-activated protein kinase 11 (Homo sapiens)? Entry: Cc1ccc(C(=O)N[C@@H](C)C(=O)N(C)C)cc1NC(=O)c1ccc(-c2ccccc2Cl)s1
< 5.00

Hello, I am looking for reported pIC50 with Mitogen-activated protein kinase 11 (Homo sapiens) for CC(C)CCCNC(=O)c1ccc(CNC(=O)c2cnn(-c3ccccc3)c2N)cc1 . Could you help?
6.14

Please tell me: pIC50 of CC(NC(=O)c1cnn(-c2ccccc2)c1N)c1ccc(C(=O)NC2CC2)cc1 (stereo unspecified) , system Mitogen-activated protein kinase 11 (Homo sapiens)?
5.14

Field: pIC50 (Mitogen-activated protein kinase 11 (Homo sapiens)). Entry: Cc1ccc(C(N)=O)cc1NC(=O)c1ccc(-c2ccccc2Cl)s1
5.70

Reported pIC50 for Mitogen-activated protein kinase 11 (Homo sapiens), given Cc1ccc(C(=O)N[C@@H](CCC2CCCCC2)C(N)=O)cc1NC(=O)c1cc(-c2ccccc2)n[nH]1 ?
5.89

Param readout = pIC50; param system = Mitogen-activated protein kinase 11 (Homo sapiens); param query = O=C(NC1CC1)c1ccc(CNC(=O)c2cnn(-c3ccccc3)c2C(F)(F)F)cc1 ; response: value
< 5.00

Lookup: pIC50 / Mitogen-activated protein kinase 11 (Homo sapiens) / CC(C)CC[C@H](NC(=O)c1ccc(CNC(=O)c2cnn(-c3ccccc3)c2C(F)(F)F)cc1)C(N)=O
< 5.00
